experiment: Acute toxicity (50% lethal dose) in mice; format: in vivo; details: mouse, in vivo, ip; CD1 mice, intraperitoneal, mortality recorded for 7 days; read-out: Acute toxicity LD50, intraperitoneal
reported.property: LD50 at 168 h
Note: a bare number is incomplete; add the unit.

molecule	LD50 at 168 h
CCC12C=C(C(=O)OC3CC(C)CC(C)(C)C3)n3c4c(c5ccccc53)CCN(CCC1)C42 (centres unmarked)	440 mg/kg

Incoming: Give the reported LD50 at 168 h for this molecule. CC[C@]12CCCN3CCc4c(n(c5ccccc45)[C@@](O)(C(=O)OC)C1)[C@@H]32 [Vincamine, reference compound]
Outgoing: 215 mg/kg
